Consider the following compounds; for each one, report its solubility.
Test Summary: solubility
Type: physicochemical
Assay Context: pH 7.2, 0.01 M phosphate; read-out: maximum aqueous solubility
Give a bare numeral; the unit µM is implied.

Which solubility value belongs to CCn1c(=O)c2[nH]c(-c3ccc(OCC(=O)NCCN)cc3)nc2n(CC)c1=O [Compound 56b] ?
500

Which solubility value belongs to CCCn1c(=O)c2[nH]c(-c3ccc(OCC(=O)NCCN)cc3)nc2n(CCC)c1=O [Compound 1a] ?
90

====

Consider the following compounds; for each one, report its Ki.
Measured On: A1 adenosine receptors (Rattus norvegicus, UniProt P25099)
Construct: rat cerebral cortex membranes; from tissue; host or cells: rat cerebral cortex membranes
Sequence (P25099 whole entry): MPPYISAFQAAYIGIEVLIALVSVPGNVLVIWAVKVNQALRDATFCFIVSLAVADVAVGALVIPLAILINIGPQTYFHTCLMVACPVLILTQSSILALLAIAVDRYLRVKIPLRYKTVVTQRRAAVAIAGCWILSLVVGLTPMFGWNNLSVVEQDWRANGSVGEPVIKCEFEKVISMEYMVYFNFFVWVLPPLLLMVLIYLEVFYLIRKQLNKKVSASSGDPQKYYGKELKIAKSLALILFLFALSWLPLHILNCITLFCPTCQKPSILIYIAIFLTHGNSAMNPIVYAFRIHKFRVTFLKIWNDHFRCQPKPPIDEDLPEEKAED
Test Summary: membrane binding assay at A1 adenosine receptors (Tables 1 and 2)
Assay Context: Table 2; read-out: Ki (A1(nM))
Counter-ions that a name gives are not always drawn.
Give a bare numeral; the unit nM is implied.

Which Ki value belongs to `CCCn1c(=O)c2[nH]c(-c3ccc(OCC(=O)NCCNC(=O)CNC(=O)[C@H](Cc4ccc(O)cc4)NC(=O)OCc4ccccc4)cc3)nc2n(CCC)c1=O` ?
4

Which Ki value belongs to `CCCn1c(=O)c2[nH]c(-c3ccc(OCC(=O)NCCNC(=O)CNC(=O)CN)cc3)nc2n(CCC)c1=O` ?
3.6

Which Ki value belongs to CCCn1c(=O)c2[nH]c(-c3ccc(OCC(=O)NCCNC(=O)[C@H](N)Cc4ccc(N)cc4)cc3)nc2n(CCC)c1=O [TFA.HD(p-NH2)PheXAC] ?
2.3

Which Ki value belongs to CCCCCC=CCC=CCCCCCCCC(=O)NC(Cc1ccc(OC(=O)CCCCCCCC=CCC=CCCCCC)cc1)C(=O)NCC(=O)NCCNC(=O)COc1ccc(-c2nc3c([nH]2)c(=O)n(CCC)c(=O)n3CCC)cc1 (stereo not drawn) ?
20

Which Ki value belongs to `CCCn1c(=O)c2[nH]c(-c3ccc(OCC(=O)NCCNC(=O)CC[C@H](N)C(=O)O)cc3)nc2n(CCC)c1=O` ?
17

Which Ki value belongs to CCCCCCCC/C=C\CCCCCCCC(=O)OCC(COP(=O)(O)OCCNC(=O)COc1ccc(-c2nc3c([nH]2)c(=O)n(CCC)c(=O)n3CCC)cc1)OC(=O)CCCCCCC/C=C\CCCCCCCC (stereo not drawn) ?
24

Cited source for all entries: patent US4968672A
